Item-by-item account of apparent KD of MS2 coat protein
System: MS2 coat protein
Experiment: apparent KD of MS2 coat protein; designed switch direction (-1 OFF switch, 1 ON switch): 1; higher = weaker reporter binding
Conditions: input ligand: FMN 200 uM
API: value field is a number in nM; no unit string.

| item.sequence | apparent KD of MS2 coat protein (nM) |
| --- | --- |
| UUACUCAUGUAAGGAUAUGCAGCCGUUUCGGCUGCAGAAGGUACUAUAAUACAUGAGGAUCACCCAUGUCUUUUUAAUUUUGAC [JL SSNG1 1.27] (Eterna round: R96, puzzle: Same State NG 1) | 79.3 |
| ACAUGAGAUAGAGGAUAUAUUGUACCUACAUGUGACAUGAGGAUCACCCAUGUGGUAAGUAUGACAUAGAAGGCUGAGAUAUGU [Equivalance 83 - Jieux - Same State NG 2] (Eterna round: R96, puzzle: Same State NG 2) | 69.8 |

Next sequence, please.
Give apparent KD of MS2 coat protein only, for ACAUGAGGAUCACCCAUGUAUGCUCAGGAAACUGUGCAGCAUUAGGAUAUGGAUCCUAAUUGGAUCCAGAAGGAGUGAAUUAUU [Fiskers NG3ss - 26] (Eterna round: R96, puzzle: Same State NG 3) , using MS2 coat protein data.
82.2
